Entry source: patent US20250129041A1

Tested on: MDA-MB-231
Experiment: Dose response curve, cell survival, 48 hours, MDA-MB-231
Type: cell-based
Settings: Homo sapiens, Adenocarcinoma, read-out: IC50 of AST-DT-218, MDA-MB-231
pIC50: −log10 of the molar value.

[
  {
    "molecule": "COc1ccc([C@@H](C)Nc2cccc3c2C(=O)N(C2CCC(=O)NC2=O)C3=O)cc1 (stereo partly shown) [AST-DT-218]",
    "pIC50": 6.20
  }
]

---

Test system: NCI-H460
Test: Dose response curve, cell survival, 48 hours, NCI-H460
Assay type: cell-based
Details: Homo sapiens, Non-Small Cell Lung Cancer, read-out: IC50 of AST-DT-218, NCI-H460
pIC50: −log10 of the molar value.
quantity: pIC50

[
  {
    "compound": "COc1ccc([C@@H](C)Nc2cccc3c2C(=O)N(C2CCC(=O)NC2=O)C3=O)cc1 (stereo partly shown)",
    "recorded.measurement": 6.62
  }
]
